test_system: HLA-Cw06 (Homo sapiens, UniProt P10321, A176E/A330V/C350S/L171W/L180W/L218V/M285V/M309V/M331V/N104K/P208H/Q277E/Q291P/R121W/R243W/S101N/S123Y/S297R/T329A/T363A/V319A/V328M)
Construct: endogenous in cells
assay_comment: HLA class I competition cell-based binding assay
Where a SMILES comes first, the peptide text is derived from it.
measurement_type: Ki

Examples with answers:
compound: CC(C)[C@H](NC(=O)CNC(=O)[C@H](CO)NC(=O)[C@H](C)NC(=O)[C@H](CCCNC(=N)N)NC(=O)[C@H](CS)NC(=O)[C@H](CCCNC(=N)N)NC(=O)[C@H](CCCNC(=N)N)NC(=O)[C@@H](N)Cc1ccc(O)cc1)C(=O)O
Ki: 0.634 µM

compound: CC(C)C[C@H](NC(=O)[C@H](C)NC(=O)[C@H](CCCNC(=N)N)NC(=O)[C@H](C)N)C(=O)N[C@@H](C)C(=O)N[C@@H](Cc1c[nH]cn1)C(=O)NCC(=O)N[C@H](C(=O)N[C@@H](CCCNC(=N)N)C(=O)N[C@H](C(=O)O)C(C)C)C(C)C (H-ARALAHGVRV-OH; N-terminus and C-terminus assumed)
Ki: 9.88 µM

Switching to the query record.
Lookup result for CC[C@H](C)[C@H](NC(=O)[C@H](CC(C)C)NC(=O)[C@H](Cc1c[nH]cn1)NC(=O)[C@H](CCCNC(=N)N)NC(=O)CNC(=O)CNC(=O)[C@H](CCCCN)NC(=O)[C@@H](NC(=O)[C@@H](N)C(C)C)[C@@H](C)CC)C(=O)N[C@@H](Cc1ccccc1)C(=O)O ; measured Ki: 17.5 µM
